pKi, Carbonic anhydrase 1 (Homo sapiens, UniProt P00915): measured values
Units for pKi: none; it is -log10 of a concentration expressed in mol/L.

Simply: `CC(=O)/C(=C\c1ccccc1)C(=O)Nc1ccc(S(N)(=O)=O)cc1` , Carbonic anhydrase 1 (Homo sapiens, UniProt P00915), pKi = 7.16

Query `COc1ccc(N/N=C(\C(C)=O)C(=O)Nc2ccc(S(N)(=O)=O)cc2)cc1OC` on Carbonic anhydrase 1 (Homo sapiens, UniProt P00915); pKi returned: 7.23

Response field pKi (Carbonic anhydrase 1 (Homo sapiens, UniProt P00915)) for item `CC(=O)/C(=N\Nc1ccc(Cl)cc1)C(=O)Nc1ccc(S(N)(=O)=O)cc1` : 5.58

Form: item `CC(=O)/C(=C\c1ccccc1Cl)C(=O)Nc1ccc(S(N)(=O)=O)cc1` ; test system Carbonic anhydrase 1 (Homo sapiens, UniProt P00915); pKi: 8.14

# lookup: `NS(=O)(=O)c1ccc(NC(=O)/C(Cl)=N/Nc2ccc(Br)cc2)cc1` on Carbonic anhydrase 1 (Homo sapiens, UniProt P00915), pKi = 6.03

Response field pKi (Carbonic anhydrase 1 (Homo sapiens, UniProt P00915)) for item `CC(=O)/C(=N\Nc1ccccc1)C(=O)Nc1ccc(S(N)(=O)=O)cc1` : 7.09

The compound `CC(=O)/C(=C\c1ccc(Cl)cc1)C(=O)Nc1ccc(S(N)(=O)=O)cc1` , when measured on Carbonic anhydrase 1 (Homo sapiens, UniProt P00915), yielded pKi of 7.39

Record for `COc1ccc(/C=C(\C(C)=O)C(=O)Nc2ccc(S(N)(=O)=O)cc2)cc1` under target or system Carbonic anhydrase 1 (Homo sapiens, UniProt P00915): pKi reported as 7.82

Carbonic anhydrase 1 (Homo sapiens, UniProt P00915) pKi of `CC(=O)/C(=C\c1cccc([N+](=O)[O-])c1)C(=O)Nc1ccc(S(N)(=O)=O)cc1` is 7.12

Reported Carbonic anhydrase 1 (Homo sapiens, UniProt P00915) pKi for item `CC(=O)/C(=N\Nc1ccc(C#N)cc1)C(=O)Nc1ccc(S(N)(=O)=O)cc1` was 6.29
